Test system: KM12 colon
Assay: NCI-60 one-dose screen, 48 h (100 = growth as untreated, 0 = no growth, -100 = all killed)
Conditions: 10 µM unless noted
This is part of a sample that, as a whole, favours compounds with a hit. Of some 83,000 tested, about 20% had one in any assay.

{"molecule": "CSc1nc2sc3c(c2c(=O)n1-c1ccc([N+](=O)[O-])cc1)CCCCC3", "growth (%)": 101}
{"molecule": "CCCc1cc(NC)nc(S(=O)(=O)CC)n1", "growth (%)": 113}
{"molecule": "Cc1ccc(-c2nc3nc(-c4ccccc4)nc(N4CCNCC4)c3o2)cc1", "growth (%)": -87.9}
{"molecule": "CCCC(O)Cn1ncc(C(=O)OCC)c1NC(=O)NCc1ccccc1F (stereo not drawn)", "growth (%)": 97.3}
{"molecule": "COc1ccc(C(c2cc(OC)c(OC)c(OC)c2)N2CCN(c3ccccc3)CC2)cc1 (stereo not drawn)", "growth (%)": 65.1}
{"molecule": "O=C1c2c(c3c4ccccc4[nH]c3c3ccc4ccccc4c23)C(=O)N1CCN1CCCCC1", "growth (%)": 48}
{"molecule": "Cn1c(=O)c2c(nc(NC3=NS(=O)(=O)c4ccccc43)n2CC(=O)N2CCc3ccccc32)n(C)c1=O", "growth (%)": 107}
{"molecule": "Clc1ccc2c(c1)N(c1ncnc3ccc(-c4cnc5[nH]ncc5c4)cc13)CC2", "growth (%)": 36.4}
{"molecule": "C=C(C)[C@@H]1CC[C@]2(C(=O)N3CCN(C)CC3)CC[C@]3(C)[C@H](CC[C@@H]4[C@@]5(C)CC(=C/c6ccncc6)/C(=N/O)C(C)(C)[C@@H]5CC[C@]43C)[C@@H]12", "growth (%)": 72.1}
{"molecule": "O=C(O)[C@@H]1c2ccccc2-c2ccccc2[C@H]1C(=O)O", "growth (%)": 105}
{"molecule": "O=C(CSc1nnc2n1S(=O)(=O)c1ccccc1N2c1ccccc1)Nc1nc2ccc(F)cc2s1", "growth (%)": 108}
{"molecule": "O=C1C(Cl)=C(Nc2ccc(O)cc2)C(=O)N1Cc1ccc(Cl)cc1", "growth (%)": 14.9}
{"molecule": "CC1=Nc2cnc(Nc3ccc(OCCN4CCCCC4)cc3)nc2Nc2ccccc21", "growth (%)": 12.8}
{"molecule": "O=C(NCCCN1CCOCC1)c1cccc(N2C(=O)/C(=C/c3ccc(F)cc3)SC2=S)c1", "growth (%)": 99.6}
{"molecule": "O=C1/C(=C/c2ccc(F)cc2)COc2ccc(O)cc21", "growth (%)": 45.9}
{"molecule": "Oc1c(Cl)cc(Cl)c2ccc(Cn3cc(-c4ccc(C(F)(F)F)cc4)nn3)nc12", "growth (%)": 101}
{"molecule": "O=C(Nc1ncc(Cc2ccc(Cl)c(C(F)(F)F)c2)s1)c1ccc2nnsc2c1", "growth (%)": 37.8}
{"molecule": "CN(C)CCCn1c2c(c3ncccc3c1=O)C(=O)c1ccccc1-2", "growth (%)": 40.9}
{"molecule": "CN1CCN(c2ccc(NC(=O)c3cncnc3Nc3ccc(OCc4ccccn4)c(Cl)c3)cc2)CC1", "growth (%)": 49.3}
{"molecule": "Cc1nnc(-n2c(O)cc(=O)n(-c3ccccc3)c2=S)nc1/C=C/c1ccc(N(C)C)cc1", "growth (%)": 47.9}
{"molecule": "O=C1c2c(c3c4ccc(Br)cc4oc3c3[nH]c4ccccc4c23)C(=O)N1O", "growth (%)": 17.1}
{"molecule": "CC(C)N1CN2C(=S)NC3C2N(C1)C(=S)N3C (stereo not drawn)", "growth (%)": 94.4}
{"molecule": "O=S(=O)(Nc1cc(Br)c(O)c2ccccc12)c1ccc(F)cc1", "growth (%)": 86.4}
{"molecule": "O=C(Nc1nc2ccc(F)cc2s1)c1cccnc1Nc1ccc(Cl)cc1", "growth (%)": 31.3}
{"molecule": "Brc1ccc(-n2cc(-c3nn[nH]n3)c(-c3cccs3)n2)cc1", "growth (%)": 103}
{"molecule": "CC1(C)CC2=C3C=C[C@@H]4[C@@]5(C)CCC(=O)C(C)(C)[C@@H]5CC[C@@]4(C)[C@]3(C)CC[C@@]2(C(=O)O)CC1=O", "growth (%)": 78.3}
{"molecule": "O=C(/C=C(/C=C/c1cccc2[nH]ccc12)OB(F)F)/C=C/c1cccc2[nH]ccc12", "growth (%)": -17.3}
{"molecule": "COC(=O)c1c2c(c(C)[n+]([O-])c1C)C(=O)C(NCc1ccc(Cl)cc1)=CC2=O", "growth (%)": 48.8}
{"molecule": "N#CC1=C(c2ccc(Cl)cc2)Nc2c(c(-c3ccc(Cl)cc3)nn2-c2ccccc2)C12C(=O)Nc1ccc(Cl)cc12 (stereo not drawn)", "growth (%)": 27.7}
{"molecule": "Clc1ccc(CNc2c3ccccc3nc3ccccc23)cc1", "growth (%)": 35.6}
{"molecule": "N#C/C(=C\\c1ccc(Br)cc1)n1nnc2ccc(F)cc21", "growth (%)": -24.7}
{"molecule": "C=C1C(=O)O[C@H]2[C@H]1CC/C(COC(=O)NCc1ccc(Cn3c(=O)sn(CCI)c3=O)cc1)=C\\CC[C@@]1(C)O[C@@H]21", "growth (%)": 91.5}
{"molecule": "CCOC(=O)C1=NN(c2ccccc2)C(=O)/C1=C\\N1C(=O)CC(=O)NC1=S", "growth (%)": 99.4}
{"molecule": "CCCCCCNC(=O)Oc1ccc(/C(=C(/C)Cc2ccc(OC)cc2)c2ccc(OCCCN(C)C)cc2)cc1", "growth (%)": 35.6}
{"molecule": "CC1(C)c2[nH]c3ccccc3c2C[C@]2(C)[C@H]3CC=C4[C@@H]5C[C@@](C)(C(N)=O)CC[C@]5(C)CC[C@@]4(C)[C@]3(C)CC[C@@H]12", "growth (%)": 58.2}
{"molecule": "CN1CCN(C(=O)c2ccc(NC(=O)Nc3ccc(-c4nc(N5CCOCC5)c5cccn5n4)cc3)cc2)CC1", "growth (%)": 9.01}
{"molecule": "CCO/C=N/C1=C(C#N)C(c2ccc(OC)cc2)c2sc3c(F)cccc3c2O1 (stereo not drawn)", "growth (%)": 25.3}
{"molecule": "C#CCOc1ccc2ncnc(Nc3ccc(NC(=O)CCl)cc3)c2c1", "growth (%)": 8.97}

###

Test system: NCI-H226 lung
Assay: NCI-60 one-dose screen, 48 h (100 = growth as untreated, 0 = no growth, -100 = all killed)
Details: 10 µM unless noted
This is part of a sample that, as a whole, favours compounds with a hit. Of some 83,000 tested, about 20% had one in any assay.
Threshold-based label: growth under 70% gives rule met, growth not under 70% gives rule not met.

{"molecule": "Fc1ccc2[nH]cc(-c3nonc3-c3c[nH]c4ccc(Br)cc34)c2c1", "label-class": "rule met"}
{"molecule": "CCNc1nc(-c2ccc(Cl)c(OC)c2)c(-c2ccnc(NCCCNS(=O)(=O)c3ccc(Cl)cc3)n2)s1", "label-class": "rule not met"}
{"molecule": "COc1ccc(C/C(C)=C(/c2ccc(OCCN3CCCCC3)cc2)c2ccc(OC(=O)NCc3ccccc3)cc2)cc1", "label-class": "rule met"}
{"molecule": "Cc1ccc(C2=Nc3c(N)ncnc3NC(c3ccc4c(c3)OCO4)C2)cc1 (centres undefined)", "label-class": "rule not met"}
{"molecule": "O=C1/C(=C\\c2cn(-c3ccccc3)nc2-c2ccc(-c3cccs3)cc2)CCc2ccccc21", "label-class": "rule not met"}
{"molecule": "CCCC(O)Cn1ncc(C(=O)OCC)c1NC(=O)NCc1ccccc1F (centres undefined)", "label-class": "rule not met"}
{"molecule": "CCCC(=O)NC(c1ccc2c(c1)OCO2)c1ccc2cccnc2c1O (centres undefined)", "label-class": "rule met"}
{"molecule": "COc1cc(CNC(=O)CCCC/C=C/C(C)C)ccc1OCc1nnc(Nc2ccc([N+](=O)[O-])cc2)o1", "label-class": "rule met"}

###

Test system: NCI-H322M lung
Assay: NCI-60 one-dose screen, 48 h
Details: 10 µM unless noted
Compounds without any hit were thinned out: in the full panel of roughly 83,000, 20% have a hit. Calls of active or inactive are those of the source. The calls were made as follows: active = growth percent below 10; inactive = the rest.
Outcome codes: YES for active, NO for inactive

{"compound": "O=S(=O)(NCCNc1cc(-c2c(-c3cccc(O)c3)nc3sccn23)ccn1)c1ccc(C(F)(F)F)cc1", "target-of-assay": "NCI-H322M lung", "label-class": "NO"}
{"compound": "COc1ccc(/C=C2\\COc3ccc(O)cc3C2=O)c(OC)c1OC", "target-of-assay": "NCI-H322M lung", "label-class": "NO"}
{"compound": "O=C(c1ccc(Cl)cc1)N1CCN(c2ccnc3cc(Cl)ccc23)CC1", "target-of-assay": "NCI-H322M lung", "label-class": "NO"}
{"compound": "COC1=CC(c2ccc[nH]2)=N/C1=C\\c1[nH]c(C)c(C(=O)OCc2ccccc2)c1C", "target-of-assay": "NCI-H322M lung", "label-class": "YES"}
{"compound": "CN1C(=O)/C(=C/c2ccc(C(=O)Nc3ncc(Cc4ccc(Cl)cc4)s3)cc2)SC1=S", "target-of-assay": "NCI-H322M lung", "label-class": "NO"}
{"compound": "O=C1c2cccnc2C(=O)c2c1c(C(=O)NCCCN1CCCCC1)c1ccccn21", "target-of-assay": "NCI-H322M lung", "label-class": "YES"}
{"compound": "CS(=O)(=O)c1cccc(-c2c(-c3cccc(OS(N)(=O)=O)c3)nc3sccn23)c1", "target-of-assay": "NCI-H322M lung", "label-class": "NO"}
{"compound": "COc1cc(CNS(=O)(=O)c2ccc(C)cc2)ccc1OCc1cn(-c2ccc(F)cc2)nn1", "target-of-assay": "NCI-H322M lung", "label-class": "NO"}
{"compound": "O=C(c1ccccc1)C1C(=O)N2C(=S)N(c3ccccc3)C(=O)C2C1c1ccc(Cl)cc1 (configuration not stated)", "target-of-assay": "NCI-H322M lung", "label-class": "NO"}
{"compound": "CCN(CC)CCOc1ccc(-c2c(-c3ccccc3)c(=O)oc3ccccc23)cc1", "target-of-assay": "NCI-H322M lung", "label-class": "NO"}
{"compound": "CCCCCCNC(=O)Oc1ccc(/C(=C(/C)Cc2ccc(OC)cc2)c2ccc(OCCCN(C)C)cc2)cc1", "target-of-assay": "NCI-H322M lung", "label-class": "NO"}
{"compound": "CC1(C)CC2=C3C=C[C@@H]4[C@@]5(C)CCC(=O)C(C)(C)[C@@H]5CC[C@@]4(C)[C@]3(C)CC[C@@]2(C(=O)O)CC1=O", "target-of-assay": "NCI-H322M lung", "label-class": "NO"}
{"compound": "N#Cc1c(N)nnn1Cc1cc(=O)oc2c1ccc1ccccc12", "target-of-assay": "NCI-H322M lung", "label-class": "NO"}
{"compound": "O=C(Nn1c2c(sc1=Nc1ccccc1)C(=O)c1ccccc1C2=O)c1cc2ccc1CCc1ccc(cc1)CC2", "target-of-assay": "NCI-H322M lung", "label-class": "NO"}
{"compound": "CCc1ccc(Oc2cn[nH]c2-c2ccc(OCCc3ccc(F)cc3)cc2O)cc1", "target-of-assay": "NCI-H322M lung", "label-class": "NO"}
{"compound": "CN([O-])c1nc(N(C)[O-])nc(N2CCOCC2)n1.CN([O-])c1nc(N(C)[OH2+])nc(N2CCOCC2)n1.[Fe+3]", "target-of-assay": "NCI-H322M lung", "label-class": "NO"}
{"compound": "C=CCn1c(SCC(=O)Nc2ccc(C(=O)/C=C/c3ccc(Cl)cc3)cc2)nnc1-c1cc(-c2ccc(S(N)(=O)=O)cc2)nc2ccccc12", "target-of-assay": "NCI-H322M lung", "label-class": "NO"}
{"compound": "COC(=O)c1ccc2c(c1)C(=O)c1c-2n(CCCN)c(=O)c2cc([N+](=O)[O-])ccc12", "target-of-assay": "NCI-H322M lung", "label-class": "YES"}
{"compound": "CSc1nnc(-c2cnn3c2NC(c2ccccc2)C3)n1-c1ccc(C(F)(F)F)cc1 (configuration not stated)", "target-of-assay": "NCI-H322M lung", "label-class": "NO"}
{"compound": "CCCCCCC1(C)NCCO1 (configuration not stated)", "target-of-assay": "NCI-H322M lung", "label-class": "NO"}
{"compound": "O=C(Nc1ccc(NC(=O)c2cc(=O)[nH]c3ccccc23)cc1)Nc1cccc(C(F)(F)F)c1", "target-of-assay": "NCI-H322M lung", "label-class": "NO"}
{"compound": "COCCn1c(-c2csc(-c3cn(C)c4ccc(OC)cc34)n2)cc2cccnc21", "target-of-assay": "NCI-H322M lung", "label-class": "NO"}
{"compound": "CCOC(=O)CNP(=O)(OC[C@@H](Cc1ccccc1)NC(=O)c1cc2ccccc2s1)Oc1ccccc1 (some centres not stated)", "target-of-assay": "NCI-H322M lung", "label-class": "NO"}
{"compound": "C=C1C(=O)O[C@H]2[C@H]1CC/C(COC(=O)CSCCSCC(=O)OC/C1=C/CC[C@@]3(C)O[C@H]3[C@H]3OC(=O)C(=C)[C@@H]3CC1)=C\\CC[C@@]1(C)O[C@@H]21", "target-of-assay": "NCI-H322M lung", "label-class": "NO"}
{"compound": "O=S(=O)(NCCNc1nccc(-c2c(-c3cccc(F)c3)nc3occn23)n1)c1ccc(Br)cc1", "target-of-assay": "NCI-H322M lung", "label-class": "NO"}
{"compound": "C=C(C)[C@@H]1CC[C@]2(C(=O)NCC#CCN3CCN(C)CC3)CC[C@]3(C)[C@H](CC[C@@H]4[C@@](C)(CCC#N)[C@H](C(=C)C)CC[C@]43C)[C@@H]12", "target-of-assay": "NCI-H322M lung", "label-class": "NO"}
{"compound": "CCCCCCCCCCCCCCCC(N)c1ccccc1 (configuration not stated)", "target-of-assay": "NCI-H322M lung", "label-class": "NO"}
{"compound": "O=C1c2cc(Cl)ccc2S(=O)(=O)c2c(NCCCNCCO)nc3ccccc3c21", "target-of-assay": "NCI-H322M lung", "label-class": "NO"}
{"compound": "CCN1C(=O)N(CC)C2C1NN=c1s/c(=C\\c3cccc([N+](=O)[O-])c3)c(=O)n12 (configuration not stated)", "target-of-assay": "NCI-H322M lung", "label-class": "NO"}
{"compound": "Brc1ccc(-n2cc(-c3nn[nH]n3)c(-c3cccs3)n2)cc1", "target-of-assay": "NCI-H322M lung", "label-class": "NO"}
{"compound": "CN(C)CCNC(=O)c1cccc(-c2cnc3ccc(-c4ccc5c(c4)OCO5)nn23)c1", "target-of-assay": "NCI-H322M lung", "label-class": "NO"}
{"compound": "CS(=O)(=O)Nc1cc(-c2ccc3ncnc(Nc4ccc5c(cnn5Cc5ccccn5)c4)c3c2)cnc1Cl", "target-of-assay": "NCI-H322M lung", "label-class": "NO"}

The reported numbers originate from PubChem BioAssay (NCI).
